These data points were gathered from PubChem BioAssay (NCI).

Tested on: NCI-H226 lung
protocol-summary: NCI tumour cell line growth inhibition, 48 h
measurement-label: TGI

Please review the following examples before continuing.
>  <compound>
CCCCCCCCCCCC[C@H](O)[C@H]1CC[C@H]([C@H](O)CCCC[C@H](O)CCCCC[C@@H](O)CC2=C[C@H](C)OC2=O)O1

>  <obs-value>
43.3 µM

$$$$
>  <compound>
O=C1CCC(C(=O)O)C2=C1CCCC2 (stereo not drawn)

>  <obs-value>
> 21.5 µM

$$$$

TGI lookup needed for COC(=O)C([C@H]1CC[C@H](OCc2ccccc2)[C@@]1(O)COCc1ccccc1)C(C)(O)CCc1ccccc1 (stereo partly drawn) , thanks.
26.6 µM

TGI lookup needed for CN(C)CCNC(=O)c1cnn(C)c1[N+](=O)[O-] , thanks.
> 100 µM

TGI lookup needed for COC(=S)OC1CC(n2cnc3c(=O)[nH]cnc32)OC1CO[Si](C)(C)C(C)(C)C (stereo not drawn) , thanks.
> 100 µM

TGI lookup needed for Clc1ccc(C2ON=C(c3ccccc3)N2C23CC4CC(CC(C4)C2)C3)c(Cl)c1 (stereo not drawn) , thanks.
> 10 µM

TGI lookup needed for CCc1c(C)[nH]c2c1/C(=N/N=C1\CCCc3[nH]c(C)c(CC)c31)CCC2 , thanks.
39.7 µM

----------
System: EKVX NSCLC
protocol-summary: NCI tumour cell line growth inhibition, 48 h
measurement-label: GI50

Please review the following examples before continuing.
>  <compound>
Oc1c(Cl)cc(Cl)c2ccc(Cn3cc(-c4cc(F)cc(F)c4)nn3)nc12

>  <measurement-label>
GI50

>  <obs-value>
11.7 µM

$$$$
>  <compound>
Oc1ccc(-c2cn3ccsc3n2)cc1O

>  <measurement-label>
GI50

>  <obs-value>
16.7 µM

$$$$
>  <compound>
O=C(NC1CCC(Br)CC1)C1CCCC(S(=O)(=O)NC2CCCCC2)C1 (stereo not given)

>  <measurement-label>
GI50

>  <obs-value>
7.81 µM

$$$$
>  <compound>
CCC(=C/[C@H](C)C/C=C/C(C)=C/[C@@H](C)C(=O)[C@@H](C)[C@H](O)[C@@H](C)CC)/C=C/[C@@H]1OC(=O)C=C[C@@H]1C

>  <measurement-label>
GI50

>  <obs-value>
< 0.005 µM

$$$$

GI50 lookup needed for COc1cc(OC)cc(C2C(C#N)=C(N)Oc3c2ccc2ccc(O)cc32)c1 (stereo not given) , thanks.
< 0.01 µM

----------
Test system: K-562 leukemia
protocol-summary: NCI tumour cell line growth inhibition, 48 h
Examples of compounds with documented TGI follow.

>  <compound>
CC(=O)Nc1ccc(NNc2cc(=O)n(C)c(=O)[nH]2)cc1

>  <experimental-system>
K-562 leukemia

>  <TGI>
> 100 µM

$$$$
>  <compound>
O=C(Nc1ccc(Oc2cccc(Cl)c2)c(Cl)c1)c1cnccn1

>  <experimental-system>
K-562 leukemia

>  <TGI>
> 50 µM

$$$$
>  <compound>
CN(C)CCCNC(=O)N/N=C\c1cccc2ccccc12

>  <experimental-system>
K-562 leukemia

>  <TGI>
> 10 µM

$$$$
>  <compound>
CC1=C(O)C(=O)C2C(=O)C1C(C)C2c1ccc(C)cc1 (stereo not given)

>  <experimental-system>
K-562 leukemia

>  <TGI>
> 100 µM

$$$$
>  <compound>
Oc1ccc(CCl)c2cccnc12

>  <experimental-system>
K-562 leukemia

>  <TGI>
> 100 µM

$$$$
>  <compound>
O=C1CCC(C(=O)O)C2=C1CCCC2 (stereo not given)

>  <experimental-system>
K-562 leukemia

>  <TGI>
> 100 µM

$$$$

Recall the recorded TGI for O=Cc1c(Cn2ccnc2)c2cc([N+](=O)[O-])ccc2n1Cc1ccccc1 with K-562 leukemia and state it.
> 100 µM

Recall the recorded TGI for CN1C(=O)N(C)C(N2CCCC2)c2c1nc1ccccn1c2=O (stereo not given) with K-562 leukemia and state it.
> 100 µM

Recall the recorded TGI for CCOC(=O)c1c(-c2ccccc2)oc(=O)c(Cc2cccc3cccnc23)c1-c1ccccc1 with K-562 leukemia and state it.
> 10 µM

----------
Tested on: EKVX NSCLC
protocol-summary: NCI tumour cell line growth inhibition, 48 h
Examples of compounds with documented TGI follow.
Give the value in µM but do not write µM after it.

Please review the following examples before continuing.
>  <compound>
COC(=O)C1=C(c2cc(OC)c(OC)c(OC)c2)OC(c2ccc3c(c2)OCO3)C1 (stereo not given)

>  <obs-value>
99.2

$$$$
>  <compound>
Cn1c(/C=C/CO)c(CO)c2c1C(=O)C=C(N1CC1)C2=O

>  <obs-value>
0.178

$$$$
>  <compound>
COc1ccc2c(c1OC)CO[C@@H]2[C@H]1c2c(c(Br)c3c(c2OC)OCO3)CCN1C

>  <obs-value>
34.8

$$$$
>  <compound>
CCn1cc(C(=O)N/N=C/c2ccc(Br)cc2)c(=O)c2cc(F)c(N3CCNC(C)C3)c(F)c21 (stereo not given)

>  <obs-value>
3.11

$$$$
>  <compound>
COc1cc2c(cc1OCCCCCN1CCN(c3cc(=O)oc4ccccc34)CC1)N=C[C@@H]1CCCN1C2=O

>  <obs-value>
4.65

$$$$

Alright, here's another compound for you.
TGI lookup needed for Oc1ccc(-c2cn3ccsc3n2)cc1O , thanks.
38.9

----------
System: SNB-19 CNS
protocol-summary: NCI tumour cell line growth inhibition, 48 h
measurement-label: TGI

>  <compound>
O=C1CCC(C(=O)O)C2=C1CCCC2 (stereo not given)

>  <obs-value>
> 100 µM

$$$$
>  <compound>
C=C(C)C(CC=C(C)C)Cc1c(O)cc(OC)c2c1OC(c1ccc(O)cc1O)C(O)C2=O (stereo not given)

>  <obs-value>
29.3 µM

$$$$
>  <compound>
ClC1=C(Cl)C(Cl)=C(Cl)C1=Cc1ccccc1

>  <obs-value>
3.58 µM

$$$$
>  <compound>
COc1cccc2c1C(=O)c1c(O)c3c(c(O)c1C2=O)CC(O)(C(=O)CO)CC3OC1CC(N)C(I)C(C)O1 (stereo not given)

>  <obs-value>
> 100 µM

$$$$

TGI lookup needed for CC(O)(CCCCCl)c1nc2ccccc2s1 (stereo not given) , thanks.
> 100 µM

TGI lookup needed for CCCC(=O)c1ccc2c(ccc(=O)n2C)c1 , thanks.
> 100 µM

TGI lookup needed for COC(=O)c1ccc(NC(=O)c2cc3c(cc2Br)OCO3)o1 , thanks.
> 100 µM

TGI lookup needed for Clc1ccc(CSC2=NCCN2)cc1Cl , thanks.
> 100 µM

TGI lookup needed for Cc1ccc(S(=O)(=O)NCCN(CCNS(=O)(=O)c2ccc(C)cc2)S(=O)(=O)c2ccc(C)cc2)cc1 , thanks.
> 100 µM

TGI lookup needed for Nc1ncnc2nc(N3CCN(CCO)CC3)[nH]c12 , thanks.
> 100 µM

TGI lookup needed for CCCCn1c(C)c(C(=O)CC)c(C(=O)NCCN2CCN(c3ccccc3Cl)CC2)c1C , thanks.
31.3 µM

----------
Examples of compounds with documented GI50 follow.
Test system: SK-MEL-5 melanoma
protocol-summary: NCI tumour cell line growth inhibition, 48 h
*1 amine or outer side, *2 acyl side, *3 side chain or, on linkers, in order; H or OH if unused. Where a SMILES comes first, the peptide text is derived from it. Bridges are numbered along the chain shown (N, C = ends). [ ]: non-standard residue; d: D form. The star is where a group is joined. Phe(3,5-F2) = N[C@@H](Cc1cc(F)cc(F)c1)C(=O)O; Pro(4R-Me) = C[C@H]1CN[C@H](C(=O)O)C1; aThr = C[C@H](O)[C@H](N)C(=O)O; Pip = O=C(O)[C@@H]1CCCCN1; X10 = Fc1cc(C2CC2)ccc1N*; Abu = CC[C@H](N)C(=O)O; CO = O=C([*:1])[*:2]

>  <compound>
CC/C=C\C/C=C\C[C@H]1C/C=C2/C(=O)C=C[C@@H]2C/C=C\CCC(=O)O1

>  <measurement-label>
GI50

>  <obs-value>
776 nM

$$$$
>  <compound>
FC(F)(F)CNc1nccc(-c2cnn3ncccc23)n1

>  <measurement-label>
GI50

>  <obs-value>
10500 nM

$$$$
>  <compound>
COc1cc(OC)cc(C2C(C#N)=C(N)Oc3c2ccc2ccc(O)cc32)c1 (centres undefined)

>  <measurement-label>
GI50

>  <obs-value>
< 10 nM

$$$$
>  <compound>
c1ccc(CSc2nnc3c4c5c(sc4nc(-c4cccnc4)n23)CCCCCC5)cc1

>  <measurement-label>
GI50

>  <obs-value>
1370 nM

$$$$
>  <compound>
CC[C@@H]1NC(=O)[C@@H]2CCCCN2C(=O)[C@@H]2CCCN2C(=O)[C@@H](NC(=O)[C@H](Cc2cc(F)cc(F)c2)NC(=O)Nc2ccc(C3CC3)cc2F)[C@H](C)OC(=O)[C@@H]2C[C@@H](C)CN2C1=O ({X10-CO}-[Phe(3,5-F2)][aThr]P[Pip][Abu][Pro(4R-Me)]; ester 2-C)

>  <measurement-label>
GI50

>  <obs-value>
59.2 nM

$$$$

Recall the recorded GI50 for [N-]=[N+]=NCCCn1c2c(c3ccccc3c1=O)C(=O)c1cc(Br)ccc1-2 with SK-MEL-5 melanoma and state it.
> 100000 nM

Recall the recorded GI50 for COc1cc2c(cc1OCCCNC(=O)/C=C1/C[C@H]3C=Nc4cc(OCc5ccccc5)c(OC)cc4C(=O)N3C1)NC(=O)[C@@H]1CCCN1C2=O with SK-MEL-5 melanoma and state it.
22500 nM

Recall the recorded GI50 for Cn1c(-c2c(N)n(Cc3ccc(C(F)(F)F)cc3)c3nc(C#N)c(C#N)nc23)nc2ccccc21 with SK-MEL-5 melanoma and state it.
16300 nM

Recall the recorded GI50 for COc1cc(NC(=O)c2ccc(C(F)(F)F)nc2Nc2cc(Cl)ccc2C)cc(OC)c1OC with SK-MEL-5 melanoma and state it.
1750 nM

Recall the recorded GI50 for Cc1cc(Nc2ncc(F)c(N[C@H]3[C@@H](C(N)=O)[C@@H]4C=C[C@H]3C4)n2)ccc1N1CCN(C)CC1 with SK-MEL-5 melanoma and state it.
1970 nM

Recall the recorded GI50 for CC(=O)Nc1ccc2c(C3=C(c4cn(C)c5ccccc45)C(=O)NC3=O)cn(C)c2c1 with SK-MEL-5 melanoma and state it.
637 nM

Recall the recorded GI50 for Cn1cc(C2=C(c3c4n(c5ccccc35)CCN(C(N)=S)C4)C(=O)NC2=O)c2ccccc21 with SK-MEL-5 melanoma and state it.
2670 nM

Recall the recorded GI50 for Oc1ccc(CCl)c2cccnc12 with SK-MEL-5 melanoma and state it.
12400 nM

Recall the recorded GI50 for O=[N+]([O-])c1ccc2scc3c4ccccc4nc-3c2c1 with SK-MEL-5 melanoma and state it.
1620 nM
